- Measurement protocol: activity coefficient (dimensionless); of the first substance listed, at infinite dilution; xn = mol fraction of the nth substance listed
- Experimental conditions: 322.85 K; Liquid; Chromatography; x1 = 0
This listing pairs compounds with measured activity coefficient.

Worked set:
CC(C)OC(C)C [diisopropyl ether] + CCCC[N+](C)(CCCC)CCCC.O=S(=O)([N-]S(=O)(=O)C(F)(F)F)C(F)(F)F | 3.31
CC(C)CO [2-methyl-1-propanol] + CCCC[N+](C)(CCCC)CCCC.O=S(=O)([N-]S(=O)(=O)C(F)(F)F)C(F)(F)F | 1.97
ClC(Cl)(Cl)Cl [tetrachloromethane] + CCCCCCCC[N+](C)(C)C.O=S(=O)([N-]S(=O)(=O)C(F)(F)F)C(F)(F)F | 1.63
C=O [methanal] + CCCC[N+](C)(CCCC)CCCC.O=S(=O)([N-]S(=O)(=O)C(F)(F)F)C(F)(F)F | 0.11
CCC[N+](=O)[O-] [1-nitropropane] + CCCCCCCC[N+](C)(C)C.O=S(=O)([N-]S(=O)(=O)C(F)(F)F)C(F)(F)F | 0.62
CC(C)O [propan-2-ol] + CCCC[N+](C)(CCCC)CCCC.O=S(=O)([N-]S(=O)(=O)C(F)(F)F)C(F)(F)F | 1.67

Could you now consider this next compound?
Query: Data request, read-out activity coefficient, for CCCCCCCCC [nonane] + CCCCCCCC[N+](C)(C)C.O=S(=O)([N-]S(=O)(=O)C(F)(F)F)C(F)(F)F
Response: 15.9

---

- Measurement protocol: activity coefficient (dimensionless); of the first substance listed, at infinite dilution; xn = mol fraction of the nth substance listed
- Experimental conditions: 322.85 K; Liquid; Chromatography; x1 = 0
Decision: activity coefficient >= 5 yields Y, all other cases yield N.

Please review the entries below; each comes with its answer.
C1CCCCC1 [cyclohexane] + CCCC[N+](C)(CCCC)CCCC.O=S(=O)([N-]S(=O)(=O)C(F)(F)F)C(F)(F)F | N
OCC(F)(F)F [2,2,2-trifluoroethanol] + CCCCCCCCCC[N+](C)(C)C.O=S(=O)([N-]S(=O)(=O)C(F)(F)F)C(F)(F)F | N

Now let's try a different one.
Query: Say whether CCCCCCCCCCCC [dodecane] + CCCCCCCC[N+](C)(C)C.O=S(=O)([N-]S(=O)(=O)C(F)(F)F)C(F)(F)F shows activity coefficient of 5 or more.
Response: Y

---

- Measurement protocol: activity coefficient (dimensionless); of the first substance listed, at infinite dilution; xn = mol fraction of the nth substance listed
- Experimental conditions: 322.85 K; Liquid; Chromatography; x1 = 0
Property label: activity coefficient
Format: numeric value only, no unit, no commentary.

Here's what some known entries look like.
ClC(Cl)(Cl)Cl [tetrachloromethane] + CCCCCCCCCC[N+](C)(C)C.O=S(=O)([N-]S(=O)(=O)C(F)(F)F)C(F)(F)F | 1.46
Cc1ccccc1 [toluene] + CCCC[N+](C)(CCCC)CCCC.O=S(=O)([N-]S(=O)(=O)C(F)(F)F)C(F)(F)F | 1.13

Query: // activity coefficient lookup, key: Cc1cccc(C)c1 [1,3-dimethylbenzene] + CCCC[N+](C)(CCCC)CCCC.O=S(=O)([N-]S(=O)(=O)C(F)(F)F)C(F)(F)F
Response: 1.49

Query: Which activity coefficient is listed for C1CCCCC1 [cyclohexane] + CCCCCCCCCC[N+](C)(C)C.O=S(=O)([N-]S(=O)(=O)C(F)(F)F)C(F)(F)F ?
Response: 2.9

Query: Sample C#CCCCC [1-hexyne] + CCCCCCCC[N+](CCCCCCCC)(CCCCCCCC)CCCCCCCC.O=S(=O)([N-]S(=O)(=O)C(F)(F)F)C(F)(F)F — what was its activity coefficient?
Response: 0.75

Query: For the molecule Cc1cccc(C)c1 [1,3-dimethylbenzene] + CCCCCCCC[N+](C)(C)C.O=S(=O)([N-]S(=O)(=O)C(F)(F)F)C(F)(F)F , what activity coefficient is on record?
Response: 1.39

Query: Look up activity coefficient for this molecule: ClC(Cl)Cl [trichloromethane] + CCCCCCCC[N+](C)(C)C.O=S(=O)([N-]S(=O)(=O)C(F)(F)F)C(F)(F)F
Response: 0.63

---

We begin with a simple list: items and their reported activity coefficient.
- Measurement protocol: activity coefficient (dimensionless); of the first substance listed, at infinite dilution; xn = mol fraction of the nth substance listed
- Experimental conditions: 322.85 K; Liquid; Chromatography; x1 = 0
Reply with just the number.

Examples with their reported activity coefficient follow.
CC(C)OC(C)C [diisopropyl ether] + CCCCCCCC[N+](CCCCCCCC)(CCCCCCCC)CCCCCCCC.O=S(=O)([N-]S(=O)(=O)C(F)(F)F)C(F)(F)F | 1.08
CC1CCCCC1 [methylcyclohexane] + CCCC[N+](C)(CCCC)CCCC.O=S(=O)([N-]S(=O)(=O)C(F)(F)F)C(F)(F)F | 5.92
Cc1ccccc1 [toluene] + CCCCCCCCCC[N+](C)(C)C.O=S(=O)([N-]S(=O)(=O)C(F)(F)F)C(F)(F)F | 0.84
CC1CCCCC1 [methylcyclohexane] + CCCCCCCCCC[N+](C)(C)C.O=S(=O)([N-]S(=O)(=O)C(F)(F)F)C(F)(F)F | 3.57
CCN(CC)CC [triethylamine] + CCCCCCCCCC[N+](C)(C)C.O=S(=O)([N-]S(=O)(=O)C(F)(F)F)C(F)(F)F | 2.17

Query: Fill blank: measured activity coefficient of the compound ClCCl [dichloromethane] + CCCCCCCC[N+](C)(C)C.O=S(=O)([N-]S(=O)(=O)C(F)(F)F)C(F)(F)F is ____.
Response: 0.51

Query: What does the data say about its activity coefficient? Entry: CCCCCCCCC [nonane] + CCCCCCCC[N+](CCCCCCCC)(CCCCCCCC)CCCCCCCC.O=S(=O)([N-]S(=O)(=O)C(F)(F)F)C(F)(F)F
Response: 2.19

Query: Give the measured activity coefficient of c1ccsc1 [thiophene] + CCCCCCCCCC[N+](C)(C)C.O=S(=O)([N-]S(=O)(=O)C(F)(F)F)C(F)(F)F .
Response: 0.65

Query: Suppose we examine the compound CC(C)CO [2-methyl-1-propanol] + CCCCCCCCCC[N+](C)(C)C.O=S(=O)([N-]S(=O)(=O)C(F)(F)F)C(F)(F)F ; what activity coefficient value has been reported?
Response: 1.59

Query: For the compound C#CCCCC [1-hexyne] + CCCCCCCCCC[N+](C)(C)C.O=S(=O)([N-]S(=O)(=O)C(F)(F)F)C(F)(F)F , what activity coefficient is on record?
Response: 1.61

Query: I am curious: what activity coefficient value has been reported for C#CCCCCC [1-heptyne] + CCCCCCCCCC[N+](C)(C)C.O=S(=O)([N-]S(=O)(=O)C(F)(F)F)C(F)(F)F ?
Response: 1.95

Query: Request the reported activity coefficient associated with c1ccncc1 [pyridine] + CCCCCCCC[N+](CCCCCCCC)(CCCCCCCC)CCCCCCCC.O=S(=O)([N-]S(=O)(=O)C(F)(F)F)C(F)(F)F
Response: 0.33

Query: Quick one: activity coefficient of Cc1cccc(C)c1 [1,3-dimethylbenzene] + CCCCCCCCCC[N+](C)(C)C.O=S(=O)([N-]S(=O)(=O)C(F)(F)F)C(F)(F)F ?
Response: 1.11

---

- Measurement protocol: activity coefficient (dimensionless); of the first substance listed, at infinite dilution; xn = mol fraction of the nth substance listed
- Experimental conditions: 343.15 K; Liquid; Chromatography; x1 = 0
Property label: activity coefficient
Form: value (number only, do not type unit).

Consider the reported activity coefficient for these molecules:
c1ccccc1 [benzene] + CCCCCCCC[N+](C)(C)C.O=S(=O)([N-]S(=O)(=O)C(F)(F)F)C(F)(F)F | 0.73
CCCC(C)=O [pentan-2-one] + CCCCCCCC[N+](C)(C)C.O=S(=O)([N-]S(=O)(=O)C(F)(F)F)C(F)(F)F | 0.57
CCCC=O [butanal] + CCCCCCCCCC[N+](C)(C)C.O=S(=O)([N-]S(=O)(=O)C(F)(F)F)C(F)(F)F | 0.51
C=O [methanal] + CCCCCCCC[N+](CCCCCCCC)(CCCCCCCC)CCCCCCCC.O=S(=O)([N-]S(=O)(=O)C(F)(F)F)C(F)(F)F | 0.09
CC1CCCC1 [methylcyclopentane] + CCCCCCCCCC[N+](C)(C)C.O=S(=O)([N-]S(=O)(=O)C(F)(F)F)C(F)(F)F | 2.83

Query: Dear colleague, I am looking for the recorded activity coefficient of the following molecule: CCCCCCCC [octane] + CCCCCCCCCC[N+](C)(C)C.O=S(=O)([N-]S(=O)(=O)C(F)(F)F)C(F)(F)F
Response: 6.1

Query: Would you kindly share the measured activity coefficient for CCCCCCC [heptane] + CCCCCCCC[N+](CCCCCCCC)(CCCCCCCC)CCCCCCCC.O=S(=O)([N-]S(=O)(=O)C(F)(F)F)C(F)(F)F ?
Response: 1.47

Query: Can you look up the measured activity coefficient of CC(C)OC(C)C [diisopropyl ether] + CCCCCCCC[N+](C)(C)C.O=S(=O)([N-]S(=O)(=O)C(F)(F)F)C(F)(F)F for me?
Response: 3.08

Query: What does the record list as activity coefficient for ClC(Cl)Cl [trichloromethane] + CCCCCCCC[N+](CCCCCCCC)(CCCCCCCC)CCCCCCCC.O=S(=O)([N-]S(=O)(=O)C(F)(F)F)C(F)(F)F ?
Response: 0.36

Query: Requested read-out: activity coefficient. Entry: Cc1cccc(C)c1 [1,3-dimethylbenzene] + CCCCCCCC[N+](C)(C)C.O=S(=O)([N-]S(=O)(=O)C(F)(F)F)C(F)(F)F
Response: 1.38

Query: Given ClC(Cl)(Cl)Cl [tetrachloromethane] + CCCC[N+](C)(CCCC)CCCC.O=S(=O)([N-]S(=O)(=O)C(F)(F)F)C(F)(F)F , state its recorded activity coefficient.
Response: 2.07

Query: Please look up its activity coefficient: CCCCCCC [heptane] + CCCCCCCC[N+](C)(C)C.O=S(=O)([N-]S(=O)(=O)C(F)(F)F)C(F)(F)F
Response: 7.18

Query: Item CCCC(C)=O [pentan-2-one] + CCCCCCCCCC[N+](C)(C)C.O=S(=O)([N-]S(=O)(=O)C(F)(F)F)C(F)(F)F has what recorded activity coefficient?
Response: 0.47

Query: Any idea what activity coefficient was measured for CCC(C)CC [3-methylpentane] + CCCCCCCCCC[N+](C)(C)C.O=S(=O)([N-]S(=O)(=O)C(F)(F)F)C(F)(F)F ?
Response: 3.62

Query: Recorded activity coefficient for CCCO [propan-1-ol] + CCCC[N+](C)(CCCC)CCCC.O=S(=O)([N-]S(=O)(=O)C(F)(F)F)C(F)(F)F , please?
Response: 1.48

Query: Consider the molecule shown here: Cc1cccc(C)c1 [1,3-dimethylbenzene] + CCCCCCCC[N+](CCCCCCCC)(CCCCCCCC)CCCCCCCC.O=S(=O)([N-]S(=O)(=O)C(F)(F)F)C(F)(F)F What is its recorded activity coefficient?
Response: 0.62

Query: For the molecule shown here, ClC(Cl)Cl [trichloromethane] + CCCCCCCCCC[N+](C)(C)C.O=S(=O)([N-]S(=O)(=O)C(F)(F)F)C(F)(F)F , give the reported activity coefficient.
Response: 0.68

Query: Sample CC1CCCCC1 [methylcyclohexane] + CCCCCCCC[N+](CCCCCCCC)(CCCCCCCC)CCCCCCCC.O=S(=O)([N-]S(=O)(=O)C(F)(F)F)C(F)(F)F — what was its activity coefficient?
Response: 1.05

Query: Look up activity coefficient: CC(C)CC(C)(C)C [2,2,4-trimethylpentane] + CCCCCCCC[N+](C)(C)C.O=S(=O)([N-]S(=O)(=O)C(F)(F)F)C(F)(F)F
Response: 7.14

Query: What measured activity coefficient goes with CCC[N+](=O)[O-] [1-nitropropane] + CCCCCCCCCC[N+](C)(C)C.O=S(=O)([N-]S(=O)(=O)C(F)(F)F)C(F)(F)F ?
Response: 0.57

Query: Recorded activity coefficient for C=CCCCC [hex-1-ene] + CCCC[N+](C)(CCCC)CCCC.O=S(=O)([N-]S(=O)(=O)C(F)(F)F)C(F)(F)F , please?
Response: 4.25

Query: Quick check: activity coefficient of CCC(=O)CC [pentan-3-one] + CCCC[N+](C)(CCCC)CCCC.O=S(=O)([N-]S(=O)(=O)C(F)(F)F)C(F)(F)F ?
Response: 0.56

Query: Look up activity coefficient for this molecule: CCN(CC)CC [triethylamine] + CCCCCCCC[N+](CCCCCCCC)(CCCCCCCC)CCCCCCCC.O=S(=O)([N-]S(=O)(=O)C(F)(F)F)C(F)(F)F
Response: 1.02

Query: Quick one: activity coefficient of ClCCl [dichloromethane] + CCCC[N+](C)(CCCC)CCCC.O=S(=O)([N-]S(=O)(=O)C(F)(F)F)C(F)(F)F ?
Response: 0.7

Query: Value lookup for activity coefficient; key = C1COCCO1 [1,4-dioxane] + CCCCCCCC[N+](CCCCCCCC)(CCCCCCCC)CCCCCCCC.O=S(=O)([N-]S(=O)(=O)C(F)(F)F)C(F)(F)F
Response: 0.47

Query: What value of activity coefficient has been recorded for this entry: c1ccccc1 [benzene] + CCCCCCCC[N+](CCCCCCCC)(CCCCCCCC)CCCCCCCC.O=S(=O)([N-]S(=O)(=O)C(F)(F)F)C(F)(F)F
Response: 0.41

Recorded values, source the NIST ThermoML archive (doi:10.1021/je200637v).
